I'd appreciate it if you could supply hsF values for the items below.
MEASURED_ON: human CYP11B1 (Homo sapiens, UniProt P15538)
Construct: The main elements of an expression plasmid include ORF of human CYP11B1 or human CYP11B2; expressed in transfected cells
METHOD_NOTES: G-402 cell enzyme experiment, CYP11B1 (cortisol product, HTRF), selectivity versus CYP11B2
Format: cell-based
COND: human selective factor: ratio of CYP11B1 EC50 to CYP11B2 EC50; G-402 cells

Below are worked cases with known answers.
GIVEN_SMILES	MEASURED_ON	VALUE_TYPE	RECORDED_MEASUREMENT
CN1C(=O)OCc2cc(-c3cncc(N4CC5(CN(C(=O)c6cnn(C)c6)C5)C4)c3)ccc21	human CYP11B1 (Homo sapiens, UniProt P15538)	hsF	> 1279x
Cc1ccc(C(=O)N2CC3(C2)CN(c2cncc(-c4ccc5c(c4)sc(=O)n5C)c2)C3)cn1	human CYP11B1 (Homo sapiens, UniProt P15538)	hsF	> 4651x
COc1ccc2cc(-c3cncc(N4CC5(CN(C(=O)c6cnn(C)c6)C5)C4)c3)ccc2n1	human CYP11B1 (Homo sapiens, UniProt P15538)	hsF	> 22909x

Quick one: give me hsF for each item below, same order please.
1. Cn1cc(C(=O)N2CC(Oc3cncc(-c4ccc5c(c4)sc(=O)n5C)n3)C2)cn1
2. Cn1cc(C(=O)N2CC3(C2)CN(c2cncc(-c4ccc5c(c4)sc(=O)n5C)c2)C3)cn1
3. COc1ccc2cc(-c3cncc(N4CC5(CC(N6CCc7cc(C)ncc7C6=O)C5)C4)c3)ccc2n1

["> 3509x", "> 485x", "> 2817x"]

---

I'd appreciate it if you could supply hsF values for the items below.
MEASURED_ON: human CYP11B1 (Homo sapiens)
Construct: The main elements of an expression plasmid include ORF of human CYP11B1 or human CYP11B2; expressed in transfected cells
Sequence (P15538 25-503): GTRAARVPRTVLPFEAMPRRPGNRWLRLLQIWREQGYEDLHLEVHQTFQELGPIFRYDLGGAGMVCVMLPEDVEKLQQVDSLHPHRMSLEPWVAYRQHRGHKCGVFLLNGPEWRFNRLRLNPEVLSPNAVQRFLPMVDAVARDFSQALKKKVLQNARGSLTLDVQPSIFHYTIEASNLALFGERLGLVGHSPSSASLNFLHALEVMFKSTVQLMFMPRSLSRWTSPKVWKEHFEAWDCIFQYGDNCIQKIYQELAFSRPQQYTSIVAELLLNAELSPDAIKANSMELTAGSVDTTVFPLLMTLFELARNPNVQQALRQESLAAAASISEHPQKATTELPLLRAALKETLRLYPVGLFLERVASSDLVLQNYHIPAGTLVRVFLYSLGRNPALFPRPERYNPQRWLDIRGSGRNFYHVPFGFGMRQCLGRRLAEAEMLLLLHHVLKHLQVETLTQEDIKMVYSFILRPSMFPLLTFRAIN
METHOD_NOTES: G-402 cell enzyme experiment, CYP11B1 (cortisol product, HTRF), selectivity versus CYP11B2
Assay type: cell-based
COND: human selective factor: ratio of CYP11B1 EC50 to CYP11B2 EC50; G-402 cells

Below are worked cases with known answers.
COMPOUND	MEASURED_ON	RECORDED_MEASUREMENT
COc1ccc2cc(-c3cncc(N4CC5(CN(C(=O)c6cnn(C7CC7)c6)C5)C4)c3)ccc2n1	human CYP11B1 (Homo sapiens)	> 4023x
CN1C(=O)C2CC2c2cc(-c3cncc(N4CC5(CN(C(=O)c6cnn(C)c6)C5)C4)c3)ccc21 (stereo not shown)	human CYP11B1 (Homo sapiens)	> 16666x
CCC(=O)N[C@H]1c2cncc(-c3ccc4c(c3)sc(=O)n4C)c2C2CC21 (stereo partly shown) [Example 66-P2]	human CYP11B1 (Homo sapiens)	> 1471x

Lab note: next compound to report on.
Would you kindly share the measured hsF for CC(=O)N[C@@H]1CCCc2c(-c3cnc4c(c3)CCC(=O)N4C)cncc21 ?
> 388x

---

MEASURED_ON: human CYP11B2 (Homo sapiens, UniProt P19099)
Construct: The main elements of an expression plasmid include ORF of human CYP11B1 or human CYP11B2
Sequence (P19099 25-503): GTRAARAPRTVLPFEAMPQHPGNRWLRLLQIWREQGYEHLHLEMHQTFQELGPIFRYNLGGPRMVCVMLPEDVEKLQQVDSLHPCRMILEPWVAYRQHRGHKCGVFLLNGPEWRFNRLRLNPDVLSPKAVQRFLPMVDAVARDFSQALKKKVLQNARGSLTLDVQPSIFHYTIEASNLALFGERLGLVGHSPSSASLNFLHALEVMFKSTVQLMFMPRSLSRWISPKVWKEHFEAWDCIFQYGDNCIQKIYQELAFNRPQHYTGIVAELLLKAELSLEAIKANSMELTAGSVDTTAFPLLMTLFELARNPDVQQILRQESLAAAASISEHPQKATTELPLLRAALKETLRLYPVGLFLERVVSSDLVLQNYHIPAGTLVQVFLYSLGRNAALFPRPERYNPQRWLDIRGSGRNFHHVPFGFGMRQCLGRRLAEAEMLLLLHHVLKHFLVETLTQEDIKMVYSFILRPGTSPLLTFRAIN
METHOD_NOTES: G-402 cell enzyme experiment, CYP11B2 (aldosterone product, HTRF)
COND: G-402 cells stably expressing human CYP11B2, 1 µM 11-deoxycorticosterone, 16 h
I'd appreciate it if you could supply pEC50 values for the items below.
One number for each entry, as −log10 of the molar value.

GIVEN_SMILES	RECORDED_MEASUREMENT
CCC(=O)Nc1cccc2c(-c3ccc4nc(OC)ccc4c3)cncc12	7.48

Quick one: give me pEC50 for each item below, same order please.
1. COc1ccc2cc(-c3cncc(N4CC5(CC(N6CCc7cc(C)ncc7C6=O)C5)C4)c3)ccc2n1
2. COc1ccc2cc(-c3cncc(NC4CN(C(=O)c5cnn(C)c5)C4)c3)ccc2n1
3. CCC(=O)N[C@@H]1CCCc2c(-c3ccc4c(cnn4C)c3)cncc21

1. 7.15
2. 7.89
3. 7.16
